targetDesc: Replicase polyprotein 1ab (Severe acute respiratory syndrome coronavirus 2)
test: Inhibition of SARS-Cov-2 RdRp expressed in HEK293T cells co-transfected with pCoV-Gluc and pCOVID-nsp12/7/8 incubated for 24 hrs by microplate luminometric analysis
Format: cell-based
Measured EC50 of individual entries
Lab book: enter the figure in nM, no units written.

Consider the reported EC50 for these molecules:
>  <chemicalString>
O=C(CSc1[nH]c2ccccc2c1SCC(=O)Nc1ccc(Cl)c(Cl)c1)NCc1ccc(-c2ccccc2)cc1

>  <unitString>
nM

>  <valueMeasured>
1910

$$$$
>  <chemicalString>
CCOc1ccccc1NC(=O)CSc1c(SCC(=O)NCc2ccc(Cl)c(Cl)c2)[nH]c2ccccc12

>  <unitString>
nM

>  <valueMeasured>
2590

$$$$
>  <chemicalString>
O=C(CSc1[nH]c2ccccc2c1SCC(=O)Nc1ccc(Cl)c(Cl)c1)NCc1ccc(Cl)cc1

>  <unitString>
nM

>  <valueMeasured>
1880

$$$$
>  <chemicalString>
CCOc1ccccc1CNC(=O)CSc1[nH]c2ccccc2c1SCC(=O)Nc1ccc(Cl)c(Cl)c1

>  <unitString>
nM

>  <valueMeasured>
1450

$$$$
>  <chemicalString>
Cc1cccc(CNC(=O)CSc2[nH]c3ccccc3c2SCC(=O)Nc2ccc(Cl)c(Cl)c2)c1

>  <unitString>
nM

>  <valueMeasured>
1550

$$$$
>  <chemicalString>
CCOc1ccccc1NC(=O)CSc1c(SCC(=O)NCc2ccccc2F)[nH]c2ccccc12

>  <unitString>
nM

>  <valueMeasured>
710

$$$$

// returns reported EC50 for input `CCOc1ccccc1NC(=O)CSc1c(SCC(=O)NCc2ccccc2Cl)[nH]c2ccccc12`
2550

Returns the measured EC50 for the input molecule. Input: `Cc1ccccc1CNC(=O)CSc1[nH]c2ccccc2c1SCC(=O)Nc1ccc(Cl)c(Cl)c1`
2440

For the molecule `CCOc1ccccc1NC(=O)CSc1c(SCC(=O)NCc2ccccc2)[nH]c2ccccc12` , what EC50 is on record?
2140

----------
test: Cytotoxicity against HEK293T cells assessed as reduction in cell viability incubated for 24 hrs by CCK-8 assay
Format: toxicity, cell-based, HEK-293T
conditionInfo: human
CC50 at 24 h values for the compounds below.
Hi! Could you send only the number? It should be in µM, unit omitted.

>  <chemicalString>
O=C(CSc1[nH]c2ccccc2c1SCC(=O)Nc1ccc(Cl)c(Cl)c1)NCc1ccccc1

>  <unitString>
µM

>  <CC50 at 24 h>
87.1

$$$$

So what does the record say about CC50 at 24 h for `Cc1cccc(CNC(=O)CSc2[nH]c3ccccc3c2SCC(=O)Nc2ccc(Cl)c(Cl)c2)c1` ?
90.3

----------
targetDesc: Replicase polyprotein 1ab (Severe acute respiratory syndrome coronavirus 2, UniProt P0DTD1)
test: Inhibition of SARS-Cov-2 RdRp expressed in HEK293T cells co-transfected with pCoV-Gluc and pCOVID-nsp12/7/8 incubated for 24 hrs by microplate luminometric analysis
Assay type: cell-based
Measured EC50 accompanies every entry in the list below.
Numbers only; they are read as nM.

Sample answers from the record:
>  <chemicalString>
O=C(CSc1[nH]c2ccccc2c1SCC(=O)Nc1ccc(Cl)c(Cl)c1)NCc1ccccc1F

>  <assayReadout>
EC50

>  <unitString>
nM

>  <valueMeasured>
1440

$$$$
>  <chemicalString>
CCOc1ccccc1NC(=O)CSc1c(SCC(=O)NCc2ccccc2C)[nH]c2ccccc12

>  <assayReadout>
EC50

>  <unitString>
nM

>  <valueMeasured>
2580

$$$$
>  <chemicalString>
CCOc1ccccc1NC(=O)CSc1c(SCC(=O)NCc2ccc(Cl)cc2)[nH]c2ccccc12

>  <assayReadout>
EC50

>  <unitString>
nM

>  <valueMeasured>
1770

$$$$

Any idea what its EC50 is? The molecule is `CCOc1ccccc1NC(=O)CSc1c(SCC(=O)NCc2ccccc2OC)[nH]c2ccccc12`
2360

Which value of EC50 has been reported for `CCOc1ccccc1NC(=O)CSc1c(SCC(=O)NCc2ccc(C)cc2)[nH]c2ccccc12` in the records?
2760

# input molecule: `O=C(CSc1[nH]c2ccccc2c1SCC(=O)Nc1ccc(Cl)c(Cl)c1)NCc1ccccc1Cl` ; wanted: its EC50
2330
